metric: pIC50
// scale note: pIC50 = -log10(conc_M); give the bare number

Prompt: Provide measured pIC50 on UniProt P41597 for C[S+]([O-])CC(O)[C@H]1CC[C@@H](N2CC(NC(=O)CNc3ncnc4ccc(C(F)(F)F)cc34)C2)CC1 (stereo partly specified) please.
Sequence (P41597 whole entry): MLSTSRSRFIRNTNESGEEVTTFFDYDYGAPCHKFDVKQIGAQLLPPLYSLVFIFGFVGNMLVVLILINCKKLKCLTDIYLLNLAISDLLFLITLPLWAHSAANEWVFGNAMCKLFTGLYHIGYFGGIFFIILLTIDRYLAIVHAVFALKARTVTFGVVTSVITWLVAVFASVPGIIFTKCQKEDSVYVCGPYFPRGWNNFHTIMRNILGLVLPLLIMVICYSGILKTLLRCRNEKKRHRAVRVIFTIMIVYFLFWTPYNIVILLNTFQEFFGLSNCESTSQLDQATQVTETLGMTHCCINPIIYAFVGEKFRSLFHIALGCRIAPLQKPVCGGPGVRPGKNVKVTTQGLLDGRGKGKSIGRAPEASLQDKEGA
Response: 6.76
